Could you please report measured Emax for the items listed next?
Target: Nuclear receptor subfamily 4 group A member 3 (Homo sapiens, UniProt Q92570)
Sequence (Q92570 whole entry, the tested form may be a part): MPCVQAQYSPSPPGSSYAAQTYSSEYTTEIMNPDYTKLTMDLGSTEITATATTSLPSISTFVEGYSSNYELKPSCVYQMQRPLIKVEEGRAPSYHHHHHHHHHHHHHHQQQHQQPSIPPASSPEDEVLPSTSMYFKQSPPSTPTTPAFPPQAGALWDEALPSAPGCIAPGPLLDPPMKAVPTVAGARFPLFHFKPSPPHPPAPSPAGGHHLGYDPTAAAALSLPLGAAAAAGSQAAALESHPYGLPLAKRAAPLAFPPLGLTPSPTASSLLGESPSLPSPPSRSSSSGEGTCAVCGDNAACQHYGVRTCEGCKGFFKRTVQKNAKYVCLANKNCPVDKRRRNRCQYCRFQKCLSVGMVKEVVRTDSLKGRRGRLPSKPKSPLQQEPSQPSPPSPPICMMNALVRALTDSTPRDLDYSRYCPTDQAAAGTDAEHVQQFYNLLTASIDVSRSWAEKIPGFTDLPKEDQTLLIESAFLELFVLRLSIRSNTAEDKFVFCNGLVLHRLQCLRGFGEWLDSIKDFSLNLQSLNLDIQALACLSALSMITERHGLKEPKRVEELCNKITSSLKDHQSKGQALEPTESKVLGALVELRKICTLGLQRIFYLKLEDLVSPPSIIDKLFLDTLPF
Experiment: Agonist activity at human NOR-1 LBD transiently transfected in HEK293T cells assessed as maximal activation incubated for 16 hrs by Gal4-hybrid reporter gene based Dual-glo luciferase assay relative to control
Format: cell-based
Conditions: filed as agonist
One number for each entry, in %.

Reference set (2 entries):
INSERT INTO results (entrysmiles, systemundertest, assayreadout, resultvalue) VALUES
  ('O=C(O)c1cccc2ccccc12', 'Nuclear receptor subfamily 4 group A member 3 (Homo sapiens, UniProt Q92570)', 'Emax', 136),
  ('O=C(O)c1ccc(OCc2ccccc2)cc1', 'Nuclear receptor subfamily 4 group A member 3 (Homo sapiens, UniProt Q92570)', 'Emax', 166);

Take each entry in turn and give its Emax.
1. C/C(=C\C(=O)O)c1ccc(C(F)(F)F)cc1
2. O=C(O)c1ccc(-c2cccc(F)c2)o1
3. CC(C)(C)c1ccc(COc2cccc(C(=O)O)c2)cc1

1: 157; 2: 148; 3: 185

* * *

Kindly state IC50 for each of the entries shown.
Molecular target: Nuclear receptor subfamily 4immunitygroup A member 1 (Homo sapiens)
Test: Inverse agonist activity at human Nur77 LBD transiently transfected in HEK293T cells incubated for 16 hrs by Gal4-hybrid reporter gene based Dual-glo luciferase assay
One number for each entry, in µM.

INSERT INTO results (entrysmiles, assayreadout, unit, resultvalue) VALUES
  ('CSc1nccn1-c1ccc(C(=O)O)cc1', 'IC50', 'µM', 9);

State, in one line, measured IC50 of O=C(O)c1ccccc1C(=O)c1ccc(Cl)cc1 99

* * *

Target: Nuclear receptor subfamily 4 group A member 2 (Homo sapiens, UniProt P43354)
Sequence (P43354 whole entry, the tested form may be a part): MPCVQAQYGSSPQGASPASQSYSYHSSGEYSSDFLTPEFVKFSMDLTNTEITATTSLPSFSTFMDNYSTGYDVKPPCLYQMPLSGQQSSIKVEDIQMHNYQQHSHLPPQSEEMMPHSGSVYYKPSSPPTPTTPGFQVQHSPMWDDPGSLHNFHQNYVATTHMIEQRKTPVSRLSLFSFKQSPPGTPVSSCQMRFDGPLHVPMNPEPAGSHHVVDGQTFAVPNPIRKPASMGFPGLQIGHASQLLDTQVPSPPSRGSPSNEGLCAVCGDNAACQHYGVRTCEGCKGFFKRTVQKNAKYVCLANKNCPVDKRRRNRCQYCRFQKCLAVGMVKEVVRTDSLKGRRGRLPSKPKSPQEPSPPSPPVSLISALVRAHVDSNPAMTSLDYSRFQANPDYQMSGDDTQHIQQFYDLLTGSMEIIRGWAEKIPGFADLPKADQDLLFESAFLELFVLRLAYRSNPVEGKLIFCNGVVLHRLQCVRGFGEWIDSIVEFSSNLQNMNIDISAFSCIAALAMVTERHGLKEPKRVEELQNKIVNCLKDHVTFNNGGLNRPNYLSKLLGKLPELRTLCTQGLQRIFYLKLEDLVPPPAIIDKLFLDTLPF
Experiment: Inverse agonist activity at human Nurr1 LBD transiently transfected in HEK293T cells incubated for 16 hrs by Gal4-hybrid reporter gene based Dual-glo luciferase assay
assayReadout: pIC50
One number for each entry, as −log10 of the molar value.

Input CSc1nccn1-c1ccc(C(=O)O)cc1 , output reported pIC50. 4.43

* * *

Target: Nuclear receptor subfamily 4 group A member 2 (Homo sapiens, UniProt P43354)
Test: Agonist activity at human Nurr1 LBD transiently transfected in HEK293T cells incubated for 16 hrs by Gal4-hybrid reporter gene based Dual-glo luciferase assay
Type: cell-based
Details: read-out: EC50
Label Condition met when EC50 < 6 µM; otherwise Condition not met.

Look over these answered cases.
INSERT INTO results (compound, category) VALUES
  ('O=C(O)c1cccc(OCc2cccc(F)c2)c1', 'Condition met'),
  ('O=C(O)c1cccc(OCc2ccccc2)c1', 'Condition not met'),
  ('O=C(O)c1ccc(OCc2ccccc2Cl)cc1', 'Condition met'),
  ('O=C(O)c1cccc2ccccc12 [NAPHTHOIC ACID]', 'Condition not met'),
  ('O=C(O)CCC(=O)c1ccccc1', 'Condition not met'),
  ('O=C(O)c1ccc(OCc2cccc(C(F)(F)F)c2)cc1', 'Condition not met');

Consider C/C(=C\C(=O)O)c1ccc(C(F)(F)F)cc1 . Does its EC50 lie strictly below 6 µM? Condition not met

Is EC50 strictly under 6 µM for the entry CC(C)(C)c1ccc(COc2cccc(C(=O)O)c2)cc1 ? Condition met

# TODO verify EC50 < 6 µM strictly for this compound: O=C(O)c1cccc(OCc2ccc(F)cc2)c1 Condition not met

Take the compound O=C(O)c1cccc(OCc2ccccc2Cl)c1 and say whether its EC50 is less than 6 µM. Condition met

Report whether reported EC50 is lower than 6 µM (strictly) for O=C(O)c1ccc(OCc2ccc(F)cc2)cc1 Condition not met

Lab log: compare recorded EC50 with 6 µM; is it strictly lower for O=C(O)c1ccc(OCc2ccccc2)cc1 ? Condition not met

* * *

What log10(EC50) was measured for each of the following?
Target: Nuclear receptor subfamily 4immunitygroup A member 1 (Homo sapiens, UniProt P22736)
Sequence (P22736 whole entry, the tested form may be a part): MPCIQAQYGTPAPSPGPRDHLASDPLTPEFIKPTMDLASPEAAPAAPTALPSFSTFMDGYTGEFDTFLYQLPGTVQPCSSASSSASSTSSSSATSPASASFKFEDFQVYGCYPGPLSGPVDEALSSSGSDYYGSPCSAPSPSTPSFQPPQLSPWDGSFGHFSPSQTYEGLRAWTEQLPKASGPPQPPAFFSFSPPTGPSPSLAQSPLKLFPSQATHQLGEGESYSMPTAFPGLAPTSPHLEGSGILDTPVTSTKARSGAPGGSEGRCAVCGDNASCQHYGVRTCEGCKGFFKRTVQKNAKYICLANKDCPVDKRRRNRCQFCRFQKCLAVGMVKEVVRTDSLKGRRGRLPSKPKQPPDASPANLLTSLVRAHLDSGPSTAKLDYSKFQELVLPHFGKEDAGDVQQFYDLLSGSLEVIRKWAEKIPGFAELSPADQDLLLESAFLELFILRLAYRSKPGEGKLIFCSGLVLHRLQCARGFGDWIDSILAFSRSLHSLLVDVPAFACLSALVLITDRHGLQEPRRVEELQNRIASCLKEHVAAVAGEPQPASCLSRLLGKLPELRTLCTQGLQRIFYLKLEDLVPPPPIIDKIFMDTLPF
Assay: Agonist activity at human Nur77 LBD transiently transfected in HEK293T cells incubated for 16 hrs by Gal4-hybrid reporter gene based Dual-glo luciferase assay
// units: µM (pre-log); metric: EC50; scale: log10

Solved cases (3 shown):
INSERT INTO assay_data (molecule, assayreadout, resultvalue) VALUES
  ('CC(C)(C)c1ccc(COc2cccc(C(=O)O)c2)cc1', 'log10(EC50)', -0.85),
  ('O=C(O)c1ccc(OCc2ccccc2)cc1', 'log10(EC50)', 0.90),
  ('O=C(O)c1cccc2ccccc12 [NAPHTHOIC ACID]', 'log10(EC50)', 1.68);

Need log10(EC50) for each of these molecules.
1. O=C(O)c1cccc(OCc2ccc(Cl)cc2Cl)c1
2. C/C(=C\C(=O)O)c1ccc(C(F)(F)F)cc1
3. O=C(O)c1ccc(-c2cccc(F)c2)o1

1. -1.40
2. 1.45
3. 0.95

* * *

Biological target: Nuclear receptor subfamily 4 group A member 3 (Homo sapiens, UniProt Q92570)
Assay: Agonist activity at human NOR-1 LBD transiently transfected in HEK293T cells incubated for 16 hrs by Gal4-hybrid reporter gene based Dual-glo luciferase assay
Type: cell-based
pEC50: −log10 of the molar value.
pEC50 vs 5: at or above is class 1, below is class 0.

Here are 6 compounds together with their reported answers.
INSERT INTO measurements (entrysmiles, category) VALUES
  ('O=C(O)c1cccc(OCc2ccc(Cl)cc2Cl)c1', 'class 1'),
  ('O=C(O)c1ccc(-c2cccc(F)c2)o1', 'class 1'),
  ('O=C(O)c1cccc2ccccc12', 'class 0'),
  ('O=C(O)CCC(=O)c1ccccc1', 'class 0'),
  ('C/C(=C\C(=O)O)c1ccc(C(F)(F)F)cc1', 'class 0'),
  ('CC(C)(C)c1ccc(COc2cccc(C(=O)O)c2)cc1', 'class 1');

--- query ---
Does the compound CCc1c(C(=O)O)cnn1-c1ccccc1 have recorded pEC50 that is 5 or more? class 0

* * *

Molecular target: Nuclear receptor subfamily 4 group A member 2 (Homo sapiens)
Assay: Agonist activity at full length human Nurr1 transiently transfected in HEK293T cells co-transfected with pFR-Luc-NurRE incubated for 16 hrs by Gal4-hybrid reporter gene based Dual-glo luciferase assay
Format: cell-based
assayReadout: EC50 (nM)
Numbers only, in nM.

Identify measured EC50 corresponding to CC(C)(C)c1ccc(COc2cccc(C(=O)O)c2)cc1 10

* * *

Target: Nuclear receptor subfamily 4 group A member 3 (Homo sapiens, UniProt Q92570)
Assay: Inverse agonist activity at human NOR-1 LBD transiently transfected in HEK293T cells incubated for 16 hrs by Gal4-hybrid reporter gene based Dual-glo luciferase assay
pIC50: −log10 of the molar value.
assayReadout: pIC50

INSERT INTO assay_data (entrysmiles, resultvalue) VALUES
  ('O=C(O)c1ccccc1CCc1ccccc1', '< 4.00'),
  ('CSc1nccn1-c1ccc(C(=O)O)cc1', '< 4.00'),
  ('O=C(O)C(c1ccccc1)(c1ccccc1)c1ccccc1', '< 4.00');

Working through the 2 compounds below one at a time, give pIC50 for each.
1. O=C(O)c1ccccc1C(=O)c1ccc(Cl)cc1
2. N#Cc1c(F)c(F)cc(C(=O)O)c1F

1: 3.95; 2: < 4.00

* * *

Target: Nuclear receptor subfamily 4immunitygroup A member 1 (Homo sapiens, UniProt P22736)
Test: Agonist activity at human Nur77 LBD transiently transfected in HEK293T cells assessed as maximal activation incubated for 16 hrs by Gal4-hybrid reporter gene based Dual-glo luciferase assay relative to control
Type: cell-based
Settings: filed as agonist
assayReadout: Emax (%)
One number for each entry, in %.

Example molecules with recorded Emax:
INSERT INTO results (entrysmiles, assayreadout, unit, resultvalue) VALUES
  ('O=C(O)c1ccc(OCc2ccccc2)cc1', 'Emax', '%', 158),
  ('CC(C)(C)c1ccc(COc2cccc(C(=O)O)c2)cc1', 'Emax', '%', 163),
  ('O=C(O)c1cccc2ccccc12', 'Emax', '%', 183);

Here are 2 molecules. What values of Emax were reported for them?
1. C/C(=C\C(=O)O)c1ccc(C(F)(F)F)cc1
2. O=C(O)c1ccc(-c2cccc(F)c2)o1

162
158

* * *

Molecular target: Nuclear receptor subfamily 4 group A member 2 (Homo sapiens, UniProt P43354)
Assay: Agonist activity at full length human Nurr1 transiently transfected in HEK293T cells co-transfected with pFR-Luc-NBRE incubated for 16 hrs by Gal4-hybrid reporter gene based Dual-glo luciferase assay
Assay type: cell-based
assayReadout: pEC50
Answers are plain numbers, as −log10 of the molar value.

Report pEC50 under test system Nuclear receptor subfamily 4 group A member 2 (Homo sapiens, UniProt P43354) for CC(C)(C)c1ccc(COc2cccc(C(=O)O)c2)cc1 . 7.89

* * *

Molecular target: Nuclear receptor subfamily 4immunitygroup A member 1 (Homo sapiens, UniProt P22736)
Assay: Modulation of human Nur77 LBD transiently transfected in HEK293T cells at 100 to 200 uM incubated for 16 hrs by Gal4-hybrid reporter gene based Dual-glo luciferase assay
Format: cell-based
Conditions: dose 100-200 µM
Active and inactive are the calls of the source. The calls are words filed in the database; no cut-off is given here.
assayReadout: Activity

INSERT INTO assay_data (compound, systemundertest, resultvalue) VALUES
  ('O=C(O)CN(CCO)CCO', 'Nuclear receptor subfamily 4immunitygroup A member 1 (Homo sapiens, UniProt P22736)', 'inactive'),
  ('COc1ccccc1CC(=O)O', 'Nuclear receptor subfamily 4immunitygroup A member 1 (Homo sapiens, UniProt P22736)', 'inactive'),
  ('O=C(O)c1ccnc2ccccc12', 'Nuclear receptor subfamily 4immunitygroup A member 1 (Homo sapiens, UniProt P22736)', 'inactive'),
  ('COc1cc(C(=O)O)cc(OC)c1OC', 'Nuclear receptor subfamily 4immunitygroup A member 1 (Homo sapiens, UniProt P22736)', 'inactive'),
  ('O=C(O)c1ccc(Oc2ccccc2)cc1', 'Nuclear receptor subfamily 4immunitygroup A member 1 (Homo sapiens, UniProt P22736)', 'inactive'),
  ('O=Cc1ccc(C(=O)O)cc1', 'Nuclear receptor subfamily 4immunitygroup A member 1 (Homo sapiens, UniProt P22736)', 'inactive'),
  ('CCC(Oc1cc(Cl)cc(Cl)c1)C(=O)O (stereo not drawn)', 'Nuclear receptor subfamily 4immunitygroup A member 1 (Homo sapiens, UniProt P22736)', 'inactive');

Write down measured Activity (Nuclear receptor subfamily 4immunitygroup A member 1 (Homo sapiens, UniProt P22736)) for this compound. Cn1nnc2c(C(=O)O)ncn2c1=O inactive
